For each record, write down the corresponding z-score.
Assay: basal 3T3-L1 adipocyte mitochondrial potential changes, profiling panel, cell-based, JC-1 fluorescence, 3T3-L1 adipocytes, 24 h, 100 nL compound (AID 1168); note: test concentration not given here
Details: JC-1 mitochondrial fluorescence, higher = more signal, called active from +8 up or from −8 down
Please reply with the number alone, leaving off any unit.

Hello, please tell me recorded z-score for this one: CON=C(C)CCN1CCCCc2nc(C)c(C)cc21
-1.41

Hello, please tell me recorded z-score for this one: CCN1C(=O)[C@H]2[C@H]3[C@H](O)[C@H](O)CC(=NOC[C@@H](O)[C@H]4O[C@@H]5OC(C)(C)O[C@@H]5[C@H]4O)[C@@H]3CC[C@H]2C1=O
0.141

Hello, please tell me recorded z-score for this one: CCN1C(=O)[C@H]2[C@H]3[C@H](O)[C@H](O)CC(=NO[C@@H]4O[C@H](COC(C)=O)[C@@H](OC(C)=O)[C@H](OC(C)=O)[C@H]4OC(C)=O)[C@@H]3CC[C@H]2C1=O
-1.51

Hello, please tell me recorded z-score for this one: CO[C@@H](C1CCCCC1)[C@@H](C)[C@H](OCc1cccc(Br)c1)[C@@H](C)CO
0.408

Hello, please tell me recorded z-score for this one: O=C1C2=CC[C@H]3C(=O)N(C[C@@H]4CCCO4)C(=O)[C@H]3[C@H]2[C@H](O)[C@@H]2O[C@H]12
0.465

Hello, please tell me recorded z-score for this one: COC(=O)CC=C[C@@H](C)[C@@H](C=NOC(C)CN1CCCCc2nc(C)c(C)cc21)OC (stereo not given in full)
-0.142

Hello, please tell me recorded z-score for this one: CC(CCN1CCc2nc(-c3ccccc3)c(-c3ccccc3)cc2C1)=NO[C@@H](C)c1cc(-c2c(C)cc(C)cc2C)no1
-1.15

Hello, please tell me recorded z-score for this one: CC=CC1=C(CO)[C@H](O)[C@H]2O[C@H]2[C@@H]1O
0.00909

Hello, please tell me recorded z-score for this one: CCOC(=O)[C@H](CC(C)C)NC(=O)CCC1CC(OC(=O)NCc2ccc3c(c2)OCO3)CC2(CCCC(COC(=O)NCCc3ccccc3OC)O2)O1 (stereo not given in full)
-0.104

Hello, please tell me recorded z-score for this one: CC(C)CON=C1[C@H]2CCn3c(=O)n(C)c(=O)n3[C@H]2[C@H](O)[C@@H]2O[C@H]12
-0.444

Hello, please tell me recorded z-score for this one: CC(CCN1CCc2nc(-c3ccccc3)c(-c3ccccc3)cc2C1)=NO[C@H](C)c1cn([C@H](CO)Cc2ccccc2)nn1
-1.49

Hello, please tell me recorded z-score for this one: CC(CCC(=O)OC[C@H]1O[C@H](C#Cc2ccccc2)C=C[C@@H]1Oc1ccc(C)cc1)=NOC[C@@H](C)[C@H](OCc1ccccc1)C(C)C
-1.77

Hello, please tell me recorded z-score for this one: C=CCOCC1CN2[C@@H](CC[C@@H](C)[C@@H]2c2ccc(Br)cc2)C(=O)O1 (stereo not given in full)
-0.809

Hello, please tell me recorded z-score for this one: CC(C)(C)N1C(=O)[C@H]2[C@H]3[C@H](O)[C@H](O)CC(=NOC[C@@H](O)COCc4ccco4)[C@@H]3CC[C@H]2C1=O
-0.243

Hello, please tell me recorded z-score for this one: O=C(NN=C1C[C@@H](O)[C@@H](O)[C@@H]2[C@@H]3C(=O)N(Cc4ccccc4)C(=O)[C@@H]3CC[C@H]12)OCc1ccccc1
0.415

Hello, please tell me recorded z-score for this one: Cc1ccc2[nH]c3nc(CCCn4ccnc4-c4ccccc4)nnc3c2c1
1.1

Hello, please tell me recorded z-score for this one: C[C@]12CCC3c4ccc(OCC5CO5)cc4CCC3C1CC[C@@H]2O (stereo not given in full)
0.121

Hello, please tell me recorded z-score for this one: COC(=O)C1=C(C)N(Cc2ccccc2)C2=C3C(=O)OCC[C@@H]3[C@@](O)(C(=O)OC)C(=O)N2[C@@H]1c1ccccc1
-1.11

Hello, please tell me recorded z-score for this one: COc1ccc(OC[C@@H]2CC3[C@@H](c4ccc(Br)cc4)[C@H](C)CC[C@H]3C(=O)O2)cc1 (stereo not given in full)
0.533

Hello, please tell me recorded z-score for this one: C=CC[C@@H]1C=C[C@H](ON=CC[C@@H]2C=C[C@H](OC(C)=O)[C@@H](COC(C)=O)O2)[C@@H](CO)O1
-0.01
